Cited source for all entries: the supplement of paper PMC6555819

Please respond with reported PBM binding z-score for every item in the list.
# Test system: LXRb:RXRa (NR concentration 270 nM, RXRa partner concentration 90 nM)
# Test description: PBM binding z-score (relative to random genomic background probes); higher = stronger binding; sequences stand for … in GC…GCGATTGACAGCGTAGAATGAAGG
Answers are plain numbers.

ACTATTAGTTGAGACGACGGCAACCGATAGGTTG = -0.449
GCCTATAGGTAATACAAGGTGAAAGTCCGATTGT = 0.783
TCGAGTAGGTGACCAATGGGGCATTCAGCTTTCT = -0.15
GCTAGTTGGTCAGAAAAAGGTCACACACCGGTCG = 3.75
CGTCCAAGGTCATAGGAGGACAGTGAAGACAGAT = 4.45

# per-item lookup of PBM binding z-score; items listed below
1. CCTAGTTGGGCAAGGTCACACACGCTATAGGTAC
2. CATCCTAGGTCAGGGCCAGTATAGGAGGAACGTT
3. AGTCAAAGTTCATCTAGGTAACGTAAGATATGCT
4. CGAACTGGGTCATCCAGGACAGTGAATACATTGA
5. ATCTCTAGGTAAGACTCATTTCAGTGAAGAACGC

Resp:
1: 3.28; 2: 1.17; 3: 3.62; 4: 1.9; 5: 0.488

# per-item lookup of PBM binding z-score; items listed below
1. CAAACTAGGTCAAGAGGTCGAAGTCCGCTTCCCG
2. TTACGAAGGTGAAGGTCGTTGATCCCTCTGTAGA

Resp:
2.77
1.48
